// data source = paper PMC8274517

Tested on: α-glucosidase
test: In vitro α-glucosidase inhibition assay (pNPG substrate)
Format: biochemical, Saccharomyces Cerevisiae
conditions: 250 µg/mL
Experimental: The α-glucosidase inhibition assay was performed as described previously. In summary, the stock solution of the enzyme from Saccharomyces Cerevisiae (0.2 U/mL) was prepared in 0.05 M sodium phosphate buffer pH 6.8. […] The reaction was stopped with the addition of 0.1 M Na2CO3 and OD405 was taken by a 96-well ELISA reader. […]
measure.name: % Inhibition (%)
Answer in %, number only, no unit symbol.

Exercise: What does the data say about its % Inhibition? Entry: "O=[N+]([O-])c1ccc(/N=N/c2ccc(O)c3ccccc23)cc1"
Key: 60

Exercise: What does the data say about its % Inhibition? Entry: "Oc1ccc(N=Nc2cccnc2Cl)c2ccccc12"
Key: 98

Exercise: What does the data say about its % Inhibition? Entry: C[C@H]1O[C@H](O[C@H]2[C@H](O)[C@@H](O)[C@@H](O[C@H]3[C@H](O)[C@@H](O)C(O)O[C@@H]3CO)O[C@@H]2CO)[C@H](O)[C@@H](O)[C@@H]1N[C@H]1C=C(CO)[C@@H](O)[C@H](O)[C@H]1O (some centres unmarked) [Acarbose, reference compound]
Key: 92

Exercise: What does the data say about its % Inhibition? Entry: "O=[N+]([O-])c1ccc(/N=N/c2ccc(O)cc2O)cc1"
Key: 95

Exercise: What does the data say about its % Inhibition? Entry: "Oc1ccc(N=Nc2cccnc2Cl)c(O)c1"
Key: 87

* * *

Tested on: α-glucosidase
test: In vitro α-glucosidase inhibition assay (pNPG substrate)
Type: biochemical, Saccharomyces Cerevisiae
conditions: 31.2 µg/mL
measure.name: % Inhibition
Express the reported value numerically, then name its unit.

Exercise: What does the data say about its % Inhibition? Entry: "O=[N+]([O-])c1ccc(/N=N/c2ccc(O)cc2O)cc1"
Key: 68%

Exercise: What does the data say about its % Inhibition? Entry: "Oc1ccc(N=Nc2cccnc2Cl)c(O)c1"
Key: 52%

Exercise: What does the data say about its % Inhibition? Entry: C[C@H]1O[C@H](O[C@H]2[C@H](O)[C@@H](O)[C@@H](O[C@H]3[C@H](O)[C@@H](O)C(O)O[C@@H]3CO)O[C@@H]2CO)[C@H](O)[C@@H](O)[C@@H]1N[C@H]1C=C(CO)[C@@H](O)[C@H](O)[C@H]1O (stereo partly drawn) [Acarbose, reference compound]
Key: 62%

Exercise: What does the data say about its % Inhibition? Entry: "O=[N+]([O-])c1ccc(/N=N/c2c(O)ccc3ccccc23)cc1"
Key: 25%

Exercise: What does the data say about its % Inhibition? Entry: "Oc1ccc(N=Nc2cccnc2Cl)c2ccccc12"
Key: 45%

Exercise: What does the data say about its % Inhibition? Entry: "O=[N+]([O-])c1ccc(/N=N/c2ccc(O)c3ccccc23)cc1"
Key: 30%

* * *

Tested on: α-glucosidase
test: In vitro α-glucosidase inhibition assay (pNPG substrate)
Assay type: biochemical, Saccharomyces Cerevisiae
conditions: 15.62 µg/mL
Answer each item with its documented % Inhibition.
Answer in %, number only, no unit symbol.

Exercise: What does the data say about its % Inhibition? Entry: Oc1ccc(N=Nc2cccnc2Cl)c(O)c1 [TR-7]
Key: 34

Exercise: What does the data say about its % Inhibition? Entry: Oc1ccc(N=Nc2cccnc2Cl)c2ccccc12 [TR-8]
Key: 29

Exercise: What does the data say about its % Inhibition? Entry: O=[N+]([O-])c1ccc(/N=N/c2c(O)ccc3ccccc23)cc1 [TR-3]
Key: 12

Exercise: What does the data say about its % Inhibition? Entry: O=[N+]([O-])c1ccc(/N=N/c2ccc(O)cc2O)cc1 [TR-1]
Key: 49

Exercise: What does the data say about its % Inhibition? Entry: C[C@H]1O[C@H](O[C@H]2[C@H](O)[C@@H](O)[C@@H](O[C@H]3[C@H](O)[C@@H](O)C(O)O[C@@H]3CO)O[C@@H]2CO)[C@H](O)[C@@H](O)[C@@H]1N[C@H]1C=C(CO)[C@@H](O)[C@H](O)[C@H]1O (stereo partly drawn) [Acarbose, reference compound]
Key: 40

Exercise: What does the data say about its % Inhibition? Entry: O=[N+]([O-])c1ccc(/N=N/c2ccc(O)c3ccccc23)cc1 [TR-2]
Key: 16
